These entries and their values trace back to ChEMBL document CHEMBL2424638.

Molecular target: G-protein coupled receptor 35 (Homo sapiens, UniProt Q9HC97)
Sequence (Q9HC97 whole entry): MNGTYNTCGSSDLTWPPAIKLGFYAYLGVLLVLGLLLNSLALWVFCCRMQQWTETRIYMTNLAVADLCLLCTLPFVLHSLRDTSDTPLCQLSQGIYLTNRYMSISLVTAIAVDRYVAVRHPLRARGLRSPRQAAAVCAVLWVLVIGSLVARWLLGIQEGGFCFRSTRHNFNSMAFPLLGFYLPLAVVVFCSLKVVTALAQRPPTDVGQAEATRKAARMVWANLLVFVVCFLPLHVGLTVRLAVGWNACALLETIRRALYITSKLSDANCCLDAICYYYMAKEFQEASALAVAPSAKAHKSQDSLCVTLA
Assay: Binding affinity to human recombinant GPR35 expressed in CHO cells by scintillation counting analysis in absence of MgCl2, NaCl, CaCl2
Assay type: cell-based
Outcome Measure: Kd (nM)

>>> result_number("[3H]C([3H])([3H])Oc1ccc(C(=O)Nc2cc(Br)cc3c(=O)cc(C(=O)O)oc23)cc1")
115

* * *

Entries and their Emax values follow.
Molecular target: G-protein coupled receptor 35 (Homo sapiens, UniProt Q9HC97)
Assay: Agonist activity at C-terminal beta-galactosidase tagged human recombinant GPR35 expressed in CHO cells at 100 uM after 90 mins by beta-arrestin recruitment assay relative to zaprinast
Type: cell-based
Outcome Measure: Emax (%)

>>> result_number("COc1ccc(C(=O)Nc2cc(Cl)cc3c(=O)cc(C(=O)O)oc23)c(F)c1")
111
>>> result_number("COc1ccc(C(=O)Nc2cc(OC)cc3c(=O)cc(C(=O)O)oc23)cc1")
124
>>> result_number("O=c1oc2ccccc2c(O)c1Cc1c(O)c2ccccc2oc1=O")
107
>>> result_number("O=C(O)c1cc2ccccc2c(Cc2c(O)c(C(=O)O)cc3ccccc23)c1O")
95
>>> result_number("NS(=O)(=O)c1cc(C(=O)O)c(NCc2ccco2)cc1Cl")
96
>>> result_number("O=C(O)c1cc(=O)c2c(OCC(O)COc3cccc4oc(C(=O)O)cc(=O)c34)cccc2o1")
119
>>> result_number("COc1ccc(C(=O)Nc2cc(Br)cc3c(=O)cc(C(=O)O)oc23)cc1F")
120
>>> result_number("COc1ccc(C(=O)Nc2cc(Br)cc3c(=O)cc(C(=O)O)oc23)c(F)c1")
120
>>> result_number("COc1cc(F)c(C(=O)Nc2cc(Br)cc3c(=O)cc(C(=O)O)oc23)c(F)c1")
119
>>> result_number("O=C(O)COc1ccc(/C=C2\\SC(=O)NC2=O)cc1")
107
>>> result_number("COc1ccc(C(=O)Nc2cc(C)cc3c(=O)cc(C(=O)O)oc23)cc1")
118
